Hello, the source for this data is patent US20160346402A1, in case you need it.

# measured target: T1, TPP-2305, hTNFRSF12 amino acids a28-80 (recombinant human TWEAKR protein) (human, UniProt Q9NP84 28-80)
# T1 construct: Soluble monomeric antigen, injected as analyte over the captured antibodies; Bought protein
# assay explanation: SPR (Biacore T100), antibody captured, TWEAKR TPP-2305 as analyte, 1:1 model
Attribute: pKd
pKd field: float, defined as -log10 of concentration (mol/L).

Some solved cases for reference:
18.3.3(TPP-2193) (antibody, mouse IgG2a, kappa, V domains shown, Comparative antibody, murine IgG2a; variable domains from WO2009/020933 with added constant regions) VH: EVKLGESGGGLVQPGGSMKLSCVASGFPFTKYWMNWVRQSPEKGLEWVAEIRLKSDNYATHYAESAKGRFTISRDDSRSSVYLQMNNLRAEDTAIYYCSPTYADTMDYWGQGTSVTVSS VL: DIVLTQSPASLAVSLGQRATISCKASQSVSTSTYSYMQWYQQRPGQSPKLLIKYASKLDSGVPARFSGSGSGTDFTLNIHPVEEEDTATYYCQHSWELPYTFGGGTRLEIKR = 8.77
P4A8(TPP-1324) (antibody, human IgG1, kappa, V domains shown, Comparative antibody, human IgG1; variable domains from WO2009/140177 with added constant regions) VH: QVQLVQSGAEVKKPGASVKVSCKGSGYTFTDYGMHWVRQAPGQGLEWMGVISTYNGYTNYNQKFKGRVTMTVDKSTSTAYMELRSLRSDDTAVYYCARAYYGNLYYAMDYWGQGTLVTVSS VL: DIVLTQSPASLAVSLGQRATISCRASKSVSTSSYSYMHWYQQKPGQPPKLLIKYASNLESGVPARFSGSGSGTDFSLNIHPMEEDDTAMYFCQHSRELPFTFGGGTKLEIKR = 8.64
P3G5(TPP-2195) (antibody, mouse IgG2a, kappa, V domains shown, Comparative antibody, murine IgG2a; variable domains from WO2009/140177 with added constant regions) VH: QVQLQQSGPEVVRPGVSVKISCKGSGYTFTDYGIHWVKQSHAKSLEWIGVISTYNGYTNYNQKFKGKATMTVDKSSSTAYMELARLTSEDSAIYYCARAYYGNLYYAMDYWGQGTSVTVSS VL: DIVLTQSPASLAVSLGQRATISCRANKSVSTSSYSYMHWYQQKPGQPPKLLIKYASNLESGVPARFSGSGSGTDFILNIHPVEEEDAATYYCQHSRELPFTFGSGTKLEIKR = 9.30
TPP-2149 (antibody, human IgG1, kappa, V domains shown, human IgG1) VH: EVQLLESGGGLVQPGGSLRLSCAASGFTFSPYPMIWVRQAPGKGLEWVSYISPSGGKTHYADSVKGRFTISRDNSKNTLYLQMNSLRAEDTAVYYCARGGDTYFDYFDYWGQGTLVTVSS VL: DIQMTQSPATLSASVGDRVTITCRASQSISGYLNWYQQKPGKAPKLLIYQASSLQSGVPSRFSGSGSGTDFTLTISSLQPEDFATYYCQQSYTSPFITFGPGTKVEIKR = 7.92
136.1(TPP-2194) (antibody, mouse IgG2a, kappa, V domains shown, Comparative antibody, murine IgG2a; variable domains from WO2009/020933 with added constant regions) VH: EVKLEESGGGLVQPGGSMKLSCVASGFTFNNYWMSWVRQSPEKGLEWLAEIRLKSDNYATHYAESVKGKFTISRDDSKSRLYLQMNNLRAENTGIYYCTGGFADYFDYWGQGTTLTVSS VL: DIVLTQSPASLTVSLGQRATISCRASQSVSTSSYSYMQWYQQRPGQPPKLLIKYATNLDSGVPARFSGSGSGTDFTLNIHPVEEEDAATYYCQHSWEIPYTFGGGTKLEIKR = 9.10
TPP-2090 (antibody, human IgG1, kappa, V domains shown, human IgG1; also called anti-TWEAKR AK-1) VH: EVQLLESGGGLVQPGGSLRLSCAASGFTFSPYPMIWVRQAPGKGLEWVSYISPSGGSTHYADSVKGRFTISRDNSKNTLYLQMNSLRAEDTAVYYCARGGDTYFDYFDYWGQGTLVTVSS VL: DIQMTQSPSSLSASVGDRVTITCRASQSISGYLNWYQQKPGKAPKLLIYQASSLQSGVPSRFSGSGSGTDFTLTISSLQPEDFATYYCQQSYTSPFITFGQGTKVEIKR = 7.91
TPP-2093 (antibody, human IgG1, kappa, V domains shown, human IgG1) VH: EVQLLESGGGLVQPGGSLRLSCAASGFTFSPYPMMWVRQAPGKGLEWVSYISPSGGSTHYADSVKGRFTISRDNSKNTLYLQMNSLRAEDTAVYYCARGGDTYFDYFDYWGQGTLVTVSS VL: DIQMTQSPSSLSASVGDRVTITCRASQSISSYLNWYQQKPGKAPKLLIYQASSLQSGVPSRFSGSGSGTDFTLTISSLQPEDFATYYCQQSYTSPFITFGQGTKVEIKR = 7.66
TPP-883 (antibody, human IgG1, kappa, V domains shown, human IgG1) VH: EVQLLESGGGLVQPGGSLRLSCAASGFTFSPYPMMWVRQAPGKGLEWVSYISPSGGKTHYADSVKGRFTISRDNSKNTLYLQMNSLRAEDTAVYYCARGGDGYFDYFDYWGQGTLVTVSS VL: DIQMTQSPATLSASVGDRVTITCRASQSISSYLNWYQQKPGKAPKLLIYAASSLQSGVPSRFSGSGSGTDFTLTISSLQPEDFATYYCQQSYSSPGITFGPGTKVEIKR = 6.69

Turning now to a further record.
Which pKd is reported for this binder? TPP-2148 (antibody, human IgG1, kappa, V domains shown, human IgG1) VH: EVQLLESGGGLVQPGGSLRLSCAASGFTFSPYPMMWVRQAPGKGLEWVSYISPSGGKTHYADSVKGRFTISRDNSKNTLYLQMNSLRAEDTAVYYCARGGDTYFDYFDYWGQGTLVTVSS VL: DIQMTQSPATLSASVGDRVTITCRASQSISSYLNWYQQKPGKAPKLLIYQASSLQSGVPSRFSGSGSGTDFTLTISSLQPEDFATYYCQQSYTSPFITFGPGTKVEIKR
7.61
